This listing pairs compounds with measured MIC of piperacillin in combination with the BLI.
# Test system: E. coli (OXA-18)
# assay overview: microbe, parasite or virus in culture
# Type: cell-based
# condition context: BLI at 2 μg/mL

- smiles representation: "CN1C[C@@H]2C[C@@H]3CN(C(=O)N3OS(=O)(=O)[O-])[C@@H]2C1=O.[Na+]"
  target system: "E. coli (OXA-18)"
  data value: "4 µg/mL"
- smiles representation: "O=C1[C@@H]2[C@@H](C[C@@H]3CN2C(=O)N3OS(=O)(=O)[O-])CN1C1CC1.[Na+]"
  target system: "E. coli (OXA-18)"
  data value: "4 µg/mL"

Report MIC of piperacillin in combination with the BLI for `O=C1NCC[C@@H]2C[C@@H]3CN(C(=O)N3OS(=O)(=O)[O-])[C@H]12.[Na+]` please.
8 µg/mL

Request the reported MIC of piperacillin in combination with the BLI associated with `O=C1NC[C@@H]2C[C@@H]3CN(C(=O)N3OS(=O)(=O)[O-])[C@H]12.[Na+]`
2 µg/mL

Consider the compound `O=C(NC1CCNCC1)[C@@H]1CC[C@@H]2CN1C(=O)N2OS(=O)(=O)O` and give its measured MIC of piperacillin in combination with the BLI.
>32 µg/mL

Which MIC of piperacillin in combination with the BLI value belongs to `NC(=O)[C@@H]1CC[C@@H]2CN1C(=O)N2OS(=O)(=O)O` ?
2 µg/mL

// provenance: patent US10597396B2
